# Target: GRK2 (Homo sapiens)
# Assay Comment: GRK2 Degradation Assay and Western Blot in PAXF1657 cells
# Assay type: cell-based
# Set-up: endogenous in cells; host or cells: PAXF1657
# Assay Conditions: 0.1 uM, PAXF1657 EV, 24 hrs
Readout Type: % GRK2 degradation at 0.1 uM in PAXF1657 EV (24 hrs) (%)
Provide only the numeric value, understood in %.

QUERY: Endpoint output: % GRK2 degradation at 0.1 uM in PAXF1657 EV (24 hrs) of Cc1ncsc1-c1ccc(CNC(=O)[C@@H]2C[C@@H](O)CN2C(=O)[C@@H](NC(=O)CCCCCOCCOCCOCCCCCCOc2cccc(C(C)NC(=O)c3cccc(NCc4nnc(-c5ccncn5)n4C)c3)c2)C(C)(C)C)cc1 (some centres unmarked) [Compound D91] . Value?
RESULT: 28

QUERY: Endpoint output: % GRK2 degradation at 0.1 uM in PAXF1657 EV (24 hrs) of Cn1c(CNc2cccc(C(=O)NCc3cccc(OCCCCCCOCCOCCOCCCCCC(=O)Nc4cccc5c4CN(C4CCC(=O)NC4=O)C5)c3)c2)nnc1-c1ccncn1 (centres unmarked) [Compound D73] . Value?
RESULT: 28

QUERY: Endpoint output: % GRK2 degradation at 0.1 uM in PAXF1657 EV (24 hrs) of Cn1c(CNc2cccc(C(=O)NCc3cc(OCCCCCCOCCOCCOCCCCCC(=O)Nc4cccc5c4CN(C4CCC(=O)NC4=O)C5=O)ccc3F)c2)nnc1-c1ccncn1 (centres unmarked) [Compound D66] . Value?
RESULT: 8

QUERY: Endpoint output: % GRK2 degradation at 0.1 uM in PAXF1657 EV (24 hrs) of Cn1c(CNc2cccc(C(=O)NCc3cccc(OCCCCCOCCCOCC(=O)Nc4cccc5c4CN(C4CCC(=O)NC4=O)C5=O)c3)c2)nnc1-c1ccncn1 (centres unmarked) [Compound D64] . Value?
RESULT: 26

Would you kindly look at the next entry?
QUERY: Endpoint output: % GRK2 degradation at 0.1 uM in PAXF1657 EV (24 hrs) of CC(NC(=O)c1cccc(NCc2nnc(-c3ccncn3)n2C)c1)c1cccc(OCCCCCCOCCOCCOCCCCCC(=O)Nc2cccc3c2CN(C2CCC(=O)NC2=O)C3=O)c1 (centres unmarked) [Compound D67] . Value?
RESULT: 60

====

Reported values of % GRK2 degradation at 10 uM in PAXF1657 EV (24 hrs) for individual entries
# Target: GRK2 (Homo sapiens, UniProt P25098)
# Assay Comment: GRK2 Degradation Assay and Western Blot in PAXF1657 cells
# Assay type: cell-based
# Parameters: endogenous in cells; host or cells: PAXF1657
# Assay Conditions: 10 uM, PAXF1657 EV, 24 hrs
Provide only the numeric value, understood in %.

QUERY: Hello, I am looking for reported % GRK2 degradation at 10 uM in PAXF1657 EV (24 hrs) with GRK2 (Homo sapiens, UniProt P25098) for Cn1c(CNc2cccc(C(=O)NCc3cccc(OCCCCCCOCCOCCOCCCCCC(=O)Nc4cccc5c4CN(C4CCC(=O)NC4=O)C5)c3)c2)nnc1-c1ccncn1 (stereo not shown) . Could you help?
RESULT: 76

QUERY: Hello, I am looking for reported % GRK2 degradation at 10 uM in PAXF1657 EV (24 hrs) with GRK2 (Homo sapiens, UniProt P25098) for Cn1c(CNc2cccc(C(=O)NCc3cc(OCCCCCCOCCOCCOCCCCCC(=O)Nc4cccc5c4CN(C4CCC(=O)NC4=O)C5=O)ccc3F)c2)nnc1-c1ccncn1 (stereo not shown) . Could you help?
RESULT: 58

QUERY: Hello, I am looking for reported % GRK2 degradation at 10 uM in PAXF1657 EV (24 hrs) with GRK2 (Homo sapiens, UniProt P25098) for Cc1ncsc1-c1ccc(CNC(=O)[C@@H]2C[C@@H](O)CN2C(=O)[C@@H](NC(=O)CCCCCOCCOCCOCCCCCCOc2cccc(C(C)NC(=O)c3cccc(NCc4nnc(-c5ccncn5)n4C)c3)c2)C(C)(C)C)cc1 (stereo partly shown) . Could you help?
RESULT: −4

QUERY: Hello, I am looking for reported % GRK2 degradation at 10 uM in PAXF1657 EV (24 hrs) with GRK2 (Homo sapiens, UniProt P25098) for Cc1ncsc1-c1ccc(CNC(=O)[C@@H]2C[C@@H](O)CN2C(=O)[C@@H](NC(=O)COCCOCCOCCOCCOCCOCCCCCCOc2cccc(CNC(=O)c3cccc(NCc4nnc(-c5ccncn5)n4C)c3)c2)C(C)(C)C)cc1 . Could you help?
RESULT: 39

Next:
QUERY: Hello, I am looking for reported % GRK2 degradation at 10 uM in PAXF1657 EV (24 hrs) with GRK2 (Homo sapiens, UniProt P25098) for Cc1ncsc1-c1ccc(CNC(=O)[C@@H]2C[C@@H](O)CN2C(=O)[C@@H](NC(=O)COCCOCCCCCCOc2cccc(CNC(=O)c3cccc(NCc4nnc(-c5ccncn5)n4C)c3)c2)C(C)(C)C)cc1 . Could you help?
RESULT: 10

QUERY: Hello, I am looking for reported % GRK2 degradation at 10 uM in PAXF1657 EV (24 hrs) with GRK2 (Homo sapiens, UniProt P25098) for CC(NC(=O)c1cccc(NCc2nnc(-c3ccncn3)n2C)c1)c1cccc(OCCCCCCOCCOCCOCCCCCC(=O)Nc2cccc3c2CN(C2CCC(=O)NC2=O)C3=O)c1 (stereo not shown) . Could you help?
RESULT: 83

QUERY: Hello, I am looking for reported % GRK2 degradation at 10 uM in PAXF1657 EV (24 hrs) with GRK2 (Homo sapiens, UniProt P25098) for Cn1c(CNc2cccc(C(=O)NCc3cccc(OCCCCCOCCCOCC(=O)Nc4cccc5c4CN(C4CCC(=O)NC4=O)C5=O)c3)c2)nnc1-c1ccncn1 (stereo not shown) . Could you help?
RESULT: 77

====

# Target: GRK2 (Homo sapiens, UniProt P25098)
# Sequence (P25098 1-689): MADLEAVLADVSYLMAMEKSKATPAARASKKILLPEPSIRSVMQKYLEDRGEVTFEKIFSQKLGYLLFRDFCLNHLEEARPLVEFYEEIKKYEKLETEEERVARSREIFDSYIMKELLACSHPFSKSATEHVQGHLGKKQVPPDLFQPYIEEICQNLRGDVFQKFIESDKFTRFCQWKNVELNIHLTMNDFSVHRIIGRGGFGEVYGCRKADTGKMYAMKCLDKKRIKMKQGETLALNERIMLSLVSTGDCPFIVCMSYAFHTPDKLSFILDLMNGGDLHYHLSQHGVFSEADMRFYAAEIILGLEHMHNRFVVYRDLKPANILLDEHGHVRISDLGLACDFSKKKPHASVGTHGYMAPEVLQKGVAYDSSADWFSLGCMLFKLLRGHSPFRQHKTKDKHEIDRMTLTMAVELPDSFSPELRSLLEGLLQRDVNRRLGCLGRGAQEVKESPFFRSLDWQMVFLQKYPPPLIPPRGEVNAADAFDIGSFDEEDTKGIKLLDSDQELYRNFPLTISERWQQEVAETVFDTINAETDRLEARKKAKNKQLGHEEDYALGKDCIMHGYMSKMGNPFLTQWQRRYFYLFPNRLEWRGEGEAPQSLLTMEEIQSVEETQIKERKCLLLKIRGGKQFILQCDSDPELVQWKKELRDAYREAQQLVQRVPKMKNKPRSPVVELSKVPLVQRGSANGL
# Assay Comment: GRK2 Degradation Assay and Western Blot in PAXF1657 cells
# Assay type: cell-based
# Design: endogenous in cells; host or cells: PAXF1657
# Assay Conditions: 3 uM, PAXF1657 EV, 24 hrs; read-out: % GRK2 degradation at 3 uM in PAXF1657 EV (24 hrs)
Readout Type: inhibition at 3 µM (%)
Provide only the numeric value, understood in %.

Study these solved cases before continuing.
QUERY: Endpoint output: inhibition at 3 µM of Cn1c(CNc2cccc(C(=O)NCc3cccc(OCCCCCCn4cc(CCCC(=O)Nc5cccc6c5CN(C5CCC(=O)NC5=O)C6=O)nn4)c3)c2)nnc1-c1ccncn1 (stereo not drawn) [Compound D63] . Value?
RESULT: 68

QUERY: Endpoint output: inhibition at 3 µM of Cc1ncsc1-c1ccc(CNC(=O)[C@@H]2C[C@@H](O)CN2C(=O)[C@@H](NC(=O)CCCc2cn(CCCCCCOc3cccc(CNC(=O)c4cccc(NCc5nnc(-c6ccncn6)n5C)c4)c3)nn2)C(C)(C)C)cc1 [Compound D86] . Value?
RESULT: 24

QUERY: Endpoint output: inhibition at 3 µM of Cc1ncsc1-c1ccc(CNC(=O)[C@@H]2C[C@@H](O)CN2C(=O)[C@@H](NC(=O)CCCCCOCCOCCOCCCCCCOc2ccc(CNC(=O)c3cccc(NCc4nnc(-c5ccncn5)n4C)c3)cc2)C(C)(C)C)cc1 [Compound D87] . Value?
RESULT: 18

QUERY: Endpoint output: inhibition at 3 µM of CC(NC(=O)c1cccc(NCc2nnc(-c3ccncn3)n2C)c1)c1cccc(OCCCCCCOCCOCCOCCCCCC(=O)Nc2cccc3c2CN(C2CCC(=O)NC2=O)C3=O)c1 (stereo not drawn) [Compound D67] . Value?
RESULT: 90

QUERY: Endpoint output: inhibition at 3 µM of Cc1ncsc1-c1ccc(CNC(=O)[C@@H]2C[C@@H](O)CN2C(=O)[C@@H](NC(=O)COCCCOCCCCCOc2cccc(CNC(=O)c3cccc(NCc4nnc(-c5ccncn5)n4C)c3)c2)C(C)(C)C)cc1 [Compound D85] . Value?
RESULT: 30

Next:
QUERY: Endpoint output: inhibition at 3 µM of Cn1c(CNc2cccc(C(=O)NCc3cccc(OCCCCCn4cc(CCCCC(=O)Nc5cccc6c5CN(C5CCC(=O)NC5=O)C6=O)nn4)c3)c2)nnc1-c1ccncn1 (stereo not drawn) [Compound D58] . Value?
RESULT: 68
